Tested on: HepG2
Test: Cytotoxicity against human HepG2 cells after 72 hrs by XTT assay
Assay type: functional, cell-based
Conditions: HepG2, 72 h
Please go through the items and note down their log10 of IC50.
Each number you see is log10 of IC50, and the unit inside the log is µM.

Go through the list and state log10 of IC50 for each entry.
1. CC(=O)N(/N=C/c1csc(-c2ccccc2)n1)c1nc(CCl)c[se]1
2. Cc1c[se]c(N/N=C/c2ccc(Cl)cc2)n1
3. CC(=O)c1[se]c(N/N=C/c2csc(-c3ccccc3)n2)nc1C
4. CC(=O)N(/N=C/c1ccc(Cl)cc1)c1nc(C)c[se]1
5. CCOC(=O)c1[se]c(N/N=C/c2ccc(Cl)cc2)nc1C

Out:
1.29
1.75
1.79
1.77
1.72

Go through the list and state log10 of IC50 for each entry.
1. ClCc1c[se]c(N/N=C/c2csc(-c3ccccc3)n2)n1
2. Clc1ccc(/C=N/Nc2nc(-c3ccccc3)c[se]2)cc1
3. O=C(NNc1nc(-c2ccccc2)c[se]1)c1ccc(Cl)cc1
4. COc1ccc(/C=N/Nc2nc(C)c[se]2)cc1
5. CCOC(=O)c1[se]c(N(/N=C/c2ccc(Cl)cc2)C(C)=O)nc1C
6. NC(=[Se])N/N=C/c1ccc(Cl)cc1
7. COc1ccc(/C=N/Nc2nc(-c3ccccc3)c[se]2)cc1
8. NC(=[Se])NNC(=O)c1ccccc1 [BENZOYL-SELENOSEMICARBAZIDE]

Out:
[1.27, 1.63, 1.80, 1.92, 1.74, 1.11, 1.70, 1.54]

Go through the list and state log10 of IC50 for each entry.
1. COc1ccc(/C=N/NC(N)=[Se])cc1
2. NC(=[Se])N/N=C/c1ccccc1 [BENZYLIDEN-SELENOSEMICARBAZIDE]
3. COc1cccc2c1C(=O)c1c(O)c3c(c(O)c1C2=O)C[C@@](O)(C(=O)CO)C[C@@H]3O[C@H]1C[C@H](N)[C@H](O)[C@H](C)O1

Out:
1. 1.05
2. 1.59
3. 0.69

* * *

Test system: HepG2
Assay: Cytotoxicity against human HepG2 cells after 72 hrs by XTT assay
Assay type: functional, cell-based
Conditions: HepG2, 72 h
Please go through the items and note down their pIC50.
Answers are plain numbers, as −log10 of the molar value.

{"structure as smiles": "NC(=[Se])NNC(=O)c1ccc(Cl)cc1", "reported result": 4.97}
{"structure as smiles": "NC(=[Se])N/N=C/c1csc(-c2ccccc2)n1", "reported result": 5.04}

Consider now this further molecule.
In: Form field - read-out: pIC50; system: HepG2; submitted item: CC(=O)c1[se]c(N(/N=C/c2csc(-c3ccccc3)n2)C(C)=O)nc1C
Out: 4.53

* * *

System: HepG2
Assay: Cytotoxicity against human HepG2 cells after 72 hrs by XTT assay
Assay type: functional, cell-based
Details: HepG2, 72 h
observation type: IC50

Check out these entries, answers already filled in.
{"structure as smiles": "ClCc1c[se]c(N/N=C/c2ccc(Cl)cc2)n1", "IC50": "> 75.1 µM"}
{"structure as smiles": "CC(=O)N(C(=O)c1ccc(Cl)cc1)N(C(C)=O)c1nc(-c2ccccc2)c[se]1", "IC50": "> 54.3 µM"}
{"structure as smiles": "CC(=O)N(/N=C/c1ccc(Cl)cc1)c1nc(-c2ccccc2)c[se]1", "IC50": "> 62.1 µM"}
{"structure as smiles": "O=C(NNc1nc(-c2ccccc2)c[se]1)c1ccccc1", "IC50": "> 73 µM"}
{"structure as smiles": "CC(=O)N(C(=O)c1ccccc1)N(C(C)=O)c1nc(-c2ccccc2)c[se]1", "IC50": "> 58.6 µM"}

Go through the list and state IC50 for each entry.
1. COc1ccc(/C=N/N(C(C)=O)c2nc(-c3ccccc3)c[se]2)cc1
2. CC(=O)N(C(=O)c1ccc(Cl)cc1)N(C(C)=O)c1nc(C)c[se]1
3. Cc1c[se]c(NNC(=O)c2ccccc2)n1
4. Cc1c[se]c(NNC(=O)c2ccc(Cl)cc2)n1

Out:
1. > 62.8 µM
2. > 62.7 µM
3. > 89.2 µM
4. > 79.5 µM
